test system: U251 CNS; test: NCI tumour cell line growth inhibition, 48 h
*1 amine or outer side, *2 acyl side, *3 side chain or, on linkers, in order; H or OH if unused. Where a SMILES comes first, the peptide text is derived from it. Bridges are numbered along the chain shown (N, C = ends). [ ]: non-standard residue; d: D form. The star is where a group is joined. Phe(3,5-F2) = N[C@@H](Cc1cc(F)cc(F)c1)C(=O)O; Pro(4R-Me) = C[C@H]1CN[C@H](C(=O)O)C1; aThr = C[C@H](O)[C@H](N)C(=O)O; Pip = O=C(O)[C@@H]1CCCCN1; X10 = Fc1cc(C2CC2)ccc1N*; Abu = CC[C@H](N)C(=O)O; CO = O=C([*:1])[*:2]
Exercise: for every item that follows, state its recorded TGI.

Ask: Lab note: need TGI for "CN(C)CCNC(=O)c1cc([N+](=O)[O-])cn1C" on U251 CNS, anyone have it?
Reply: > 100 µM

Ask: Lab note: need TGI for "CSc1nc(=Nc2ccccc2)sn1-c1ccccc1" on U251 CNS, anyone have it?
Reply: 33.4 µM

Ask: Lab note: need TGI for CCOC(=O)C1(c2ccccc2)CCCNCC1 (centres undefined) on U251 CNS, anyone have it?
Reply: > 100 µM

Ask: Lab note: need TGI for C=C(C)C(CC=C(C)C)Cc1c(O)cc(OC)c2c1OC(c1ccc(O)cc1O)C(O)C2=O (centres undefined) on U251 CNS, anyone have it?
Reply: 27.6 µM

Ask: Lab note: need TGI for "CCN(CC)c1ccc2c(cc1=O)[C@@H](NC(C)=O)CCc1cc(OC)c(OC)c(OC)c1-2" on U251 CNS, anyone have it?
Reply: > 100 µM

Ask: Lab note: need TGI for CC(C)(C)C(=O)CC1(O)C=C(O)C(O)(CC(=O)C(C)(C)C)O1 (centres undefined) on U251 CNS, anyone have it?
Reply: > 100 µM

Ask: Lab note: need TGI for "O=C1c2ccc3cc(CCl)cc(O)c3c2C(=O)c2cccc(O)c21" on U251 CNS, anyone have it?
Reply: > 10 µM

Ask: Lab note: need TGI for COc1cc(C(C)c2ccc3c(ccn3C)c2)cc(OC)c1OC (centres undefined) on U251 CNS, anyone have it?
Reply: 39 µM

Ask: Lab note: need TGI for "CC1(C)C(=NN=C(N)N)C(C)(C)C1=NN=C(N)N" on U251 CNS, anyone have it?
Reply: > 100 µM

Ask: Lab note: need TGI for "c1cc2sc1CSCCSCCSC2" on U251 CNS, anyone have it?
Reply: > 100 µM

Ask: Lab note: need TGI for "ClCCN1CCOC1=C1C=CC=C1" on U251 CNS, anyone have it?
Reply: > 100 µM

Ask: Lab note: need TGI for CC[C@@H]1NC(=O)[C@@H]2CCCCN2C(=O)[C@@H]2CCCN2C(=O)[C@@H](NC(=O)[C@H](Cc2cc(F)cc(F)c2)NC(=O)Nc2ccc(C3CC3)cc2F)[C@H](C)OC(=O)[C@@H]2C[C@@H](C)CN2C1=O ({X10-CO}-[Phe(3,5-F2)][aThr]P[Pip][Abu][Pro(4R-Me)]; ester 2-C) on U251 CNS, anyone have it?
Reply: > 56.6 µM

Ask: Lab note: need TGI for "O=[N+]([O-])c1cccc(-c2ncnc(-c3cccc([N+](=O)[O-])c3)n2)c1" on U251 CNS, anyone have it?
Reply: 59.6 µM

Ask: Lab note: need TGI for "O=C(CC(Cl)(Cl)C(Cl)(Cl)Cl)c1ccccc1" on U251 CNS, anyone have it?
Reply: 18.3 µM
